Cited source for all entries: paper PMC12736563

# Tested on: human red blood cells
# PROTOCOL_NOTES: Hemolytic activity
# Format: cell-based
# COND: 100 μM peptide; fresh human capillary blood; two independent experiments
Ends that are not written are not given here.
MEASURE_NAME: Hemolysis (%)

>>> df
                                  substance  assay_value
0                  IIWLPVLKFLASHV-NH2 [XIV]          100
1                 FWFKALKSVAKFIA-NH2 [XIII]            0
2                    IWLSLMKFAGKHL-NH2 [IX]          100
3  IWWTAVKFFGKQL-NH2 [XV, 13-residue fragment of Lycosin 9o from Lycosa hispanica; negative control in hemolysis]            0

----------
# System: human red blood cells
# PROTOCOL_NOTES: Hemolytic activity
# Type: cell-based
# COND: 50 μM peptide; fresh human capillary blood; two independent experiments
# Procedure: Hemolytic activity was assessed using fresh capillary blood from a human volunteer, as described in [28]. Each peptide’s hemolytic activity was tested in two independent experiments.
Ends that are not written are not given here.
MEASURE_NAME: Hemolysis (%)

>>> print(df.to_string())
                                  substance   measure_name  assay_value
0  IWWTAVKFFGKQL-NH2 [XV, 13-residue fragment of Lycosin 9o from Lycosa hispanica; negative control in hemolysis]  Hemolysis (%)            0
1                    IWLSLMKFAGKHL-NH2 [IX]  Hemolysis (%)           14
2                  IIWLPVLKFLASHV-NH2 [XIV]  Hemolysis (%)           60
3                 FWFKALKSVAKFIA-NH2 [XIII]  Hemolysis (%)            0

----------
# Tested on: human red blood cells
# PROTOCOL_NOTES: Hemolytic activity
# Assay type: cell-based
# COND: 25 μM peptide; fresh human capillary blood; two independent experiments
Ends that are not written are not given here.
Listed below: Hemolysis (%) values for each entry.
MEASURE_NAME: Hemolysis (%)

>>> print(df.to_string())
                                  substance            test_target   measure_name  assay_value
0                  IIWLPVLKFLASHV-NH2 [XIV]  human red blood cells  Hemolysis (%)           0%
1                 FWFKALKSVAKFIA-NH2 [XIII]  human red blood cells  Hemolysis (%)           0%
2                    IWLSLMKFAGKHL-NH2 [IX]  human red blood cells  Hemolysis (%)           0%
3  IWWTAVKFFGKQL-NH2 [XV, 13-residue fragment of Lycosin 9o from Lycosa hispanica; negative control in hemolysis]  human red blood cells  Hemolysis (%)           0%
